molecular target: T1, Rhesus macaque CD4-HIS (Acro Biosystems, Cat. CD4-C52H7) (rhesus macaque, UniProt P16003 26-390); test: BLI Octet, mAb on anti-mouse Fc sensor, rhesus CD4-HIS 25-100 nM, 1:1 global fit;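 note: purified antibodies captured at 10 µg/mL, rhesus CD4 analyte run as a three-concentration serial dilution, irrelevant antibody as reference control, one kinetic constant set per antibody from global fitting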
T1 construct: Bought reagent; also called Rhesus CD4; rhesus CD4-HIS; not shown: His tag
T1 sequence (P16003 26-390 limits assumed): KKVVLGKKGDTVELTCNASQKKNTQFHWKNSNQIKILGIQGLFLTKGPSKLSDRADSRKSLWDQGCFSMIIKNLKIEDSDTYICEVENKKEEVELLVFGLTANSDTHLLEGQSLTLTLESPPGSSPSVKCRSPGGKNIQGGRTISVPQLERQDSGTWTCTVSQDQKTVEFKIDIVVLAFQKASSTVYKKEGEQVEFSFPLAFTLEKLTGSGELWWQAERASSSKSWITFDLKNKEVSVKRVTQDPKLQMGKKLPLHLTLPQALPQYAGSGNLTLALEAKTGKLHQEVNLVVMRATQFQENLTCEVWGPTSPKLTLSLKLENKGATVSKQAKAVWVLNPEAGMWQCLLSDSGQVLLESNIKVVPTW
Reported kon by item:
Kindly answer with a numeric value in M⁻¹ s⁻¹, unit omitted.

Examples from the recorded data:
Inquiry: Name the recorded kon of the item 75110_04H17A (antibody, V domains shown, Tested as antibody purified from AlivaMab Mouse hybridoma supernatant (captured by anti-mouse IgG Fc)) VH: QVQLQESGPGLVKPSETLSLTCTVSGGSISTYYWSWIRQSAGKGLEWIGRIYTSERPNYNPSLKSRVTMSVDTSKNQFSLKLNSVSAADTAVYYCARELERPYYYGMDVWGQGTTVTVSS VL: DVQMTQSPSSLSASVGGRVTITCQASQDISNYLNWYQQKPGKAPKLLIYYASNLETGVPSRFSGSGSGTDFTFTISSLQPEDFATYYCQQYDNLPLTFGGGTKVEIK in your answer.
Reply text: 120000

Inquiry: Name the recorded kon of the item 75110_04F22A (antibody, V domains shown, Tested as antibody purified from AlivaMab Mouse hybridoma supernatant (captured by anti-mouse IgG Fc)) VH: EVQLVESGGGLVQPGGSLRLSCAASGFTFSSYDIHWVRQATGKGLEWVSTIGTAGDTYYPGSVKGRFTISRENAKNSLYLQMNSLRAGDTAVYYCARGGYYYYGMDVWGQGTTVTVSS VL: EIVLTQSPGTLSLSPGERATLSCRASQSVYSSYLAWYQQKPGQAPRLLIYGASSRATGIPDRFSGSGSGTDFTLTISRLEPEDFAVYYCQQFGTSPFTFGPGTKVDIK in your answer.
Reply text: 150000

Now for the binder whose kon we want.
Inquiry: Name the recorded kon of the item 75110_02E22A (antibody, V domains shown, Tested as antibody purified from AlivaMab Mouse hybridoma supernatant (captured by anti-mouse IgG Fc)) VH: QVQLQESGPGLVKPSETLSLTCTVSGGSISSFYWSWIRQPAGKGLEWIGRIYTSGSTNYNPSLKSRVTMSVDTSKNQFSLKLSSVTAADTAVYYCARELEKRNYYGMDVWGQGTTVTVSS VL: DIQMTQSPSSLSASVGDRVTITCQASHDISNYLNWYQQKPGKAPKLLIFDASTLETGVPSRFSGSGSGTYFTFTIRSLQPEDIATYYCQQYDSLPLTFGGGTKVEIK in your answer.
Reply text: 87000
